biological target: HsNMT1 (Homo sapiens, UniProt P30419); construct: made in house; experiment: NMT activity assay (CPM detection of free CoA), human NMT; type: biochemical; conditions: Table 2; read-out: HsNMT IC50 (nM)*
Sequence (P30419 whole entry): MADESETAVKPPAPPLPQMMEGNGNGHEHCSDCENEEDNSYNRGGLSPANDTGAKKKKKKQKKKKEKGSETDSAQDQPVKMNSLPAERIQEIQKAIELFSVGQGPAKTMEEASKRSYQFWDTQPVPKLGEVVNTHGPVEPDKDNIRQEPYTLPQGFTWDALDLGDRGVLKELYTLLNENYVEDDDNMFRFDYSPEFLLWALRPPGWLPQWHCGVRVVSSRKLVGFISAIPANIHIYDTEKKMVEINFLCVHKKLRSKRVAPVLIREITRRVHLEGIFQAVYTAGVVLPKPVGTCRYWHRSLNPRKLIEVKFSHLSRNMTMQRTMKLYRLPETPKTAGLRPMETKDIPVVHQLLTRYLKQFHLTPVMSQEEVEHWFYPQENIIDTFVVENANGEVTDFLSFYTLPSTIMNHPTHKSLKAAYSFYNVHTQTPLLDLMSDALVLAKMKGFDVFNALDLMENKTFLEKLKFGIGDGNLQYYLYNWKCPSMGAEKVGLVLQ
Collected IC50 values appear next to each entry.

Consider the following illustrative entries.
Cc1nn(C)c(C)c1CCOc1ccc2ccccc2c1-c1ccnc(N2CCNCC2)c1 [Compound 30a] :: 24000 nM
Cc1nn(C)c(C)c1CCOc1cc(F)ccc1-c1cccc(OCCN(C)C)c1 [Compound 26c] :: 4790 nM

INPUT: # input molecule: Cc1nn(C)c(C)c1CCOc1cccnc1-c1cccc(OCCN(C)C)c1 [Compound 26a] ; wanted: its IC50
OUTPUT: > 40000 nM

INPUT: Reported IC50, molecule CN(C)CCOc1cccc(-c2ccc(F)cc2OCCc2cccnc2)c1 [Compound 26f] : ____
OUTPUT: > 40000 nM

INPUT: Return reported IC50; argument: c1cncc(CCOc2ccc3ccccc3c2-c2ccnc(N3CCNCC3)c2)c1 [Compound 30c]
OUTPUT: > 40000 nM

INPUT: Find the recorded IC50 belonging to Cc1n[nH]c(C)c1CCOc1cc(F)ccc1-c1cccc(OCCN(C)C)c1 [Compound 26i] and report it.
OUTPUT: 13900 nM

INPUT: I would be grateful if you could share the reported IC50 for Cc1nn(C)c(C)c1CCOc1ccccc1-c1cccc(OCCN(C)C)c1 [Compound 26b] .
OUTPUT: 9850 nM

* * *

Collected IC50 values appear next to each entry.
target: HsNMT1 (Homo sapiens); construct: made in house; experiment: NMT activity assay (CPM detection of free CoA), human NMT; type: biochemical; conditions: Table 1; mean values of two or more determinations; read-out: HsNMT IC50 (nM)*
Number only, in nM; omit the unit.

Some solved cases for reference:
Cc1nn(C)c(C)c1CCOc1cc(F)ccc1-c1ccnc(N2CCNCC2)c1 [Compound 12e] :: 124
c1cncc(CCOc2cccnc2-c2cccc(N3CCNCC3)c2)c1 [Compound 12g] :: 15900
Cc1n[nH]c(C)c1CCOc1cc(F)ccc1-c1ccnc(N2CCNCC2)c1 [Compound 12q] :: 1630

INPUT: Given the compound Cc1nn(C)c(C)c1CCOc1ccccc1-c1cccc(N2CCNCC2)c1 [Compound 12d] , what is its reported IC50?
OUTPUT: 7440

* * *

biological target: PvNMT (Plasmodium vivax, UniProt A5K1A2); construct: Gly-Pro stays on the protein after cleavage) (N, cleaved yes); host or cells: E. coli Rosetta 2 (DE3) pRARE; test: biochemical; type: biochemical; conditions: Table 2; HsNMT IC50/PvNMT IC50
Sequence (A5K1A2 entry or part of it): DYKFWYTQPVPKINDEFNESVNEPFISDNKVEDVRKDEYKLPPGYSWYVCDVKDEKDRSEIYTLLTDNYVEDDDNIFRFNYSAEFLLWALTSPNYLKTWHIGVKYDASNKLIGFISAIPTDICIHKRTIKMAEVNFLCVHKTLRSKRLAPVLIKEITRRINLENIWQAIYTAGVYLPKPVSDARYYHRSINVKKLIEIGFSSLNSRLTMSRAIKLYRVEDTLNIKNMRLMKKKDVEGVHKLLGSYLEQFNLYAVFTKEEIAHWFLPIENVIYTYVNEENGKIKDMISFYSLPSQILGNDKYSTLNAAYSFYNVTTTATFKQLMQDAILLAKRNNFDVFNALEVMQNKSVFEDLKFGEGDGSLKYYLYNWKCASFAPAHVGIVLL
Listing of entries alongside the reported SI**.
Give the figure by itself; no unit, no explanation.

Recorded results for 4 compounds are shown here.
Cc1nn(C)c(C)c1CCOc1ccc2ccccc2c1-c1ccnc(N2CCNCC2)c1 [Compound 30a] :: 269.8
CN(C)CCOc1cccc(-c2ccc(F)cc2OCCc2cccnc2)c1 [Compound 26f] :: 62.3
c1cncc(CCOc2ccc3ccccc3c2-c2ccnc(N3CCNCC3)c2)c1 [Compound 30c] :: 161
Cc1nn(C)c(C)c1CCOc1cc(F)ccc1-c1cccc(OCCN(C)C)c1 [Compound 26c] :: 162.3

INPUT: Test system PvNMT (Plasmodium vivax, UniProt A5K1A2); read-out SI**; what value for Cc1n[nH]c(C)c1CCOc1cc(F)ccc1-c1cccc(OCCN(C)C)c1 [Compound 26i] ?
OUTPUT: 57

INPUT: Give SI** (PvNMT (Plasmodium vivax, UniProt A5K1A2)) of the following compound: Cc1nn(C)c(C)c1CCOc1ccccc1-c1cccc(OCCN(C)C)c1 [Compound 26b]
OUTPUT: 118.4

INPUT: Notebook: pull reported SI** for PvNMT (Plasmodium vivax, UniProt A5K1A2), entry Cc1nn(C)c(C)c1CCOc1cccnc1-c1cccc(OCCN(C)C)c1 [Compound 26a]
OUTPUT: 153.8

* * *

biological target: PvNMT (Plasmodium vivax, UniProt A5K1A2); construct: Gly-Pro stays on the protein after cleavage) (N, cleaved yes); host or cells: E. coli Rosetta 2 (DE3) pRARE; test: biochemical; assay type: biochemical; details: Table 2
Criterion: IC50 strictly under 2000 nM. Met: True. Not met: False.

Cc1nn(C)c(C)c1CCOc1ccccc1-c1cccc(OCCN(C)C)c1 [Compound 26b] :: True
CN(C)CCOc1cccc(-c2ccc(F)cc2OCCc2cccnc2)c1 [Compound 26f] :: True
Cc1n[nH]c(C)c1CCOc1cccnc1-c1cccc(OCCN(C)C)c1 [Compound 26g] :: False
Cc1n[nH]c(C)c1CCOc1cc(F)ccc1-c1cccc(OCCN(C)C)c1 [Compound 26i] :: True
Cc1nn(C)c(C)c1CCOc1cc(F)ccc1-c1cccc(OCCN(C)C)c1 [Compound 26c] :: True

Now for a further compound.
INPUT: Record Cc1n[nH]c(C)c1CCOc1ccc2ccccc2c1-c1cccc(OCCN(C)C)c1 [Compound 30f] : is its IC50 strictly below 2000 nM?
OUTPUT: False

* * *

target: PvNMT (Plasmodium vivax); construct: Gly-Pro stays on the protein after cleavage) (N, cleaved yes); host or cells: E. coli Rosetta 2 (DE3) pRARE; test: biochemical; type: biochemical; details: Table 1; mean values of two or more determinations
Reported IC50 values follow for various compounds

Take a look at these entries with their results.
Cc1nn(C)c(C)c1CCOc1ccccc1-c1cccc(N2CCNCC2)c1 [Compound 12d] :: 48.5 nM
Cc1nn(C)c(C)c1CCOc1ccccc1-c1cc(N2CCNCC2)ncn1 [Compound 16a] :: 9390 nM
Cc1n[nH]c(C)c1CCOc1cccnc1-c1ccnc(N2CCNCC2)c1 [Compound 12o] :: 3120 nM

INPUT: Requested field: IC50. Item: c1cncc(CCOc2ccccc2-c2cccc(N3CCNCC3)c2)c1 [Compound 12i]
OUTPUT: 1540 nM

* * *

biological target: HsNMT1 (Homo sapiens); construct: made in house; test: NMT activity assay (CPM detection of free CoA), human NMT; assay type: biochemical; conditions: Table 1; mean values of two or more determinations; read-out: HsNMT IC50 (nM)*
I'd appreciate it if you marked entries 1 when IC50 is lower than 20000 nM and 0 when it is not.

c1cncc(CCOc2ccccc2-c2ccnc(N3CCNCC3)c2)c1 [Compound 12j] :: 0
Cc1nn(C)c(C)c1CCOc1cc(F)ccc1-c1cccc(N2CCNCC2)c1 [Compound 12f] :: 1
Cc1nn(C)c(C)c1CCOc1cccnc1-c1ccnc(N2CCNCC2)c1 [Compound 12a] :: 1
Cc1n[nH]c(C)c1CCOc1ccccc1-c1ccnc(N2CCNCC2)c1 [Compound 12n] :: 0
Cc1nn(C)c(C)c1CCOc1cccnc1-c1cccc(N2CCNCC2)c1 [Compound 12b] :: 0

INPUT: Is it true that IC50 reported for Cc1nn(C)c(C)c1CCOc1ccccc1-c1ccnc(N2CCNCC2)c1 [Compound 12c] is less than 20000 nM?
OUTPUT: 1

INPUT: Consider the molecule Fc1ccc(-c2ccnc(N3CCNCC3)c2)c(OCCc2cccnc2)c1 [Compound 12l] . Is its IC50 strictly less than 20000 nM?
OUTPUT: 1

INPUT: Take the molecule Cc1nn(C)c(C)c1CCOc1cc(F)ccc1-c1cc(N2CCNCC2)ncn1 [Compound 16b] and say whether its IC50 is less than 20000 nM.
OUTPUT: 0

* * *

molecular target: PvNMT (Plasmodium vivax); construct: Gly-Pro stays on the protein after cleavage) (N, cleaved yes); host or cells: E. coli Rosetta 2 (DE3) pRARE; assay: biochemical; format: biochemical; conditions: Table 2
Field 'label' (enum: Condition met / Condition not met). Set to Condition met when IC50 is strictly under 7000 nM; else Condition not met.

CN(C)CCOc1cccc(-c2ncccc2OCCc2cccnc2)c1 [Compound 26d] :: Condition not met
c1cncc(CCOc2ccc3ccccc3c2-c2ccnc(N3CCNCC3)c2)c1 [Compound 30c] :: Condition met
Cc1nn(C)c(C)c1CCOc1ccc2ccccc2c1-c1ccnc(N2CCNCC2)c1 [Compound 30a] :: Condition met

INPUT: Dear colleague, could you confirm whether IC50 of Cc1nn(C)c(C)c1CCOc1ccc2ccccc2c1-c1cccc(OCCN(C)C)c1 [Compound 30b] falls below 7000 nM? Thanks.
OUTPUT: Condition not met

INPUT: Hi there! Is IC50 for Cc1n[nH]c(C)c1CCOc1ccc2ccccc2c1-c1ccnc(N2CCNCC2)c1 [Compound 30e] below 7000 nM, do you know?
OUTPUT: Condition met

* * *

IC50 by entry:
Biological target: PvNMT (Plasmodium vivax)
Construct: Gly-Pro stays on the protein after cleavage) (N, cleaved yes); host or cells: E. coli Rosetta 2 (DE3) pRARE
Assay: biochemical
Assay type: biochemical
Conditions: Table 1; mean values of two or more determinations
Protocol: NMT activity was indirectly measured through the detection of free CoA by the thiol-reactive probe 7-diethylamino-3-(4′-maleimidylphenyl)-4-methylcoumarin (CPM). This study aimed to identify NMT is with high selectivity for the P. vivax enzyme compared with human NMTs and high potency against the different stages of the P. vivax parasite. […] Cytotoxicity was assessed in the human hepatoma HepG2 cell line. […]
Provide the reading as a plain figure in nM.

INPUT: Suppose we examine the compound Cc1nn(C)c(C)c1CCOc1cc(F)ccc1-c1cc(N2CCNCC2)ncn1 [Compound 16b] ; what IC50 value has been reported?
OUTPUT: 168

INPUT: State the recorded IC50 for this entry: c1cncc(CCOc2ccccc2-c2ccnc(N3CCNCC3)c2)c1 [Compound 12j]
OUTPUT: 124

INPUT: Give its IC50 value. Item: Cc1nn(C)c(C)c1CCOc1cc(F)ccc1-c1ccnc(N2CCNCC2)c1 [Compound 12e]
OUTPUT: 15.8

INPUT: Quick check: IC50 of c1cncc(CCOc2cccnc2-c2ccnc(N3CCNCC3)c2)c1 [Compound 12h] ?
OUTPUT: 441

INPUT: Reported IC50, compound Cc1n[nH]c(C)c1CCOc1cc(F)ccc1-c1cc(N2CCNCC2)ncn1 [Compound 16e] : ____
OUTPUT: 5070

INPUT: Recorded IC50 for Cc1nn(C)c(C)c1CCOc1ccccc1-c1ccnc(N2CCNCC2)c1 [Compound 12c] , please?
OUTPUT: 9.48
